# target_entity: Human Polθ polymerase domain (aa1820-2590) (Homo sapiens, UniProt O75417)
# Construct: Human Polθ polymerase domain (aa1820-2590) was expressed in E. coli; made in house; host or cells: E. coli
# Sequence (O75417 1820-2590): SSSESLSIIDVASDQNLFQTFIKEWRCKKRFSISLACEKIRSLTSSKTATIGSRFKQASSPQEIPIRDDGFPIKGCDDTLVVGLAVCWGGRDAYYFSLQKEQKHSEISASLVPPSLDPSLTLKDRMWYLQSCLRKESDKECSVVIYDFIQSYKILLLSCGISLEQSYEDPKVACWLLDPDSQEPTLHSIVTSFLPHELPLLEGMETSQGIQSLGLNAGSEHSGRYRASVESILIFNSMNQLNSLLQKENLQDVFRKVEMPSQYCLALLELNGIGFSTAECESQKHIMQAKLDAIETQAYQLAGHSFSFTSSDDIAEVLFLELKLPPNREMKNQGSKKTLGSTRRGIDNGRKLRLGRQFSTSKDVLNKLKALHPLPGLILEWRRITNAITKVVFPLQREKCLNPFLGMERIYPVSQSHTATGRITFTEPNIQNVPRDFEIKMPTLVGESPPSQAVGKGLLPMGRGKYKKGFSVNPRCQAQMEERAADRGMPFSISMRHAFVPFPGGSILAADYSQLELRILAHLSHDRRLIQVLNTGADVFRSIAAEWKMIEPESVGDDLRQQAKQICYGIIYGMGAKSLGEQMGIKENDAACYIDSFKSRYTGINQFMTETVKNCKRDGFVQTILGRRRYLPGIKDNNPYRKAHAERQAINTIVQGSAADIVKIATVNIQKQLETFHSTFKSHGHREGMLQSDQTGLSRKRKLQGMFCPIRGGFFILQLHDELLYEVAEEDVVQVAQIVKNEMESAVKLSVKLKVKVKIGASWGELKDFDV
# experimental_details: Polθ Polymerase Domain Kinact/KI Assay (PicoGreen)
# Format: biochemical
# setup_conditions: 0.8 nM Polθ, 100 nM DNA substrate, kobs vs [I] fit for 2-step covalent inhibitor
property: Kinact/Kl (M⁻¹ s⁻¹)
One number for each entry, in M⁻¹ s⁻¹.

C=CC(=O)Nc1cnc(CN2C[C@H]3CC(=O)N(c4cc(C(F)(F)F)cc(C)n4)[C@@H]3C(=O)N(C)c3cccc(Cl)c32)nc1 = 770000
C=CC(=O)N1CC2(CN(CCN3C[C@H]4CC(=O)N(c5cc(C(F)(F)F)cc(C)n5)[C@@H]4C(=O)N(C)c4cccc(F)c43)C[C@@H](C)N2)C1 = 1.13e+06
C=CC(=O)N1CC(N(C)CCCN2C[C@H]3CC(=O)N(c4cc(C(F)(F)F)cc(C)n4)[C@@H]3C(=O)N(C)c3cccc(C)c32)C1 = 1.67e+06
C#CC(=O)NC12CC(CN3C[C@H]4CC(=O)N(c5cc(C(F)(F)F)cc(C)n5)[C@@H]4C(=O)N(C)c4cccc(C)c43)(C1)C2 = 690000

API: the following record is the query input.
Value of measured Kinact/Kl for the entry `Cc1cc(C(F)(F)F)cc(N2C(=O)C[C@@H]3CN(Cc4cn5c(n4)CN(C(=O)/C=C/C(F)F)CC5)c4c(Cl)cccc4N(C)C(=O)[C@H]32)n1` : 1.54e+06

====

# target_entity: Human Polθ polymerase domain (aa1820-2590) (Homo sapiens, UniProt O75417)
# Construct: Human Polθ polymerase domain (aa1820-2590) was expressed in E. coli; made in house; host or cells: E. coli
# experimental_details: Polθ Polymerase Domain Kinact/KI Assay (PicoGreen)
# Type: biochemical
# setup_conditions: 0.8 nM Polθ, 100 nM DNA substrate, kobs vs [I] fit for 2-step covalent inhibitor
Kindly state Kinact/Kl for each of the entries shown.
One number for each entry, in M⁻¹ s⁻¹.

C=C(CN(C)C)C(=O)N1CC[C@H](COCCN2C[C@H]3CC(=O)N(c4cc(C(F)(F)F)cc(C)n4)[C@@H]3C(=O)N(C)c3cccc(C)c32)C1 = 2.26e+06
Cc1cc(C(F)(F)F)cc(N2C(=O)C[C@@H]3CN(CC45CC(CNC(=O)/C=C/CN(C)C)(C4)C5)c4c(C)cccc4N(C)C(=O)[C@H]32)n1 = 670000

API: the following record is the query input.
Value of measured Kinact/Kl for the entry `C=CC(=O)N1CC(c2noc(CN3C[C@H]4CC(=O)N(c5cc(C(F)(F)F)cc(C)n5)[C@@H]4C(=O)N(C)c4cccc(F)c43)n2)C1` : 1.16e+06

====

# target_entity: Human Polθ polymerase domain (aa1820-2590) (Homo sapiens)
# Construct: Human Polθ polymerase domain (aa1820-2590) was expressed in E. coli; made in house; host or cells: E. coli
# experimental_details: Polθ Polymerase Domain Kinact/KI Assay (PicoGreen)
# Format: biochemical
# setup_conditions: 0.8 nM Polθ, 100 nM DNA substrate, kobs vs [I] fit for 2-step covalent inhibitor
property: Kinact/Kl
Could you kindly put the unit after your number?

Answered cases to consult:
C=CC(=O)N1CCC[C@H]1c1noc(CN2C[C@H]3CC(=O)N(c4cc(C(F)(F)F)cc(C)n4)[C@@H]3C(=O)N(C)c3cccc(C)c32)n1 [Example 269] = 970000 M⁻¹ s⁻¹
C=CC(=O)N1CCN(CCN2C[C@H]3CC(=O)N(c4cc(C(F)(F)F)cc(C)n4)[C@@H]3C(=O)N(C)c3cccc(C)c32)CC1 [Example 256] = 1.11e+06 M⁻¹ s⁻¹

Value of measured Kinact/Kl for the entry C=CC(=O)N1CC2(CN(CCN3C[C@H]4CC(=O)N(c5cc(C(F)(F)F)cc(C)n5)[C@@H]4C(=O)N(C)c4cccc(Cl)c43)CCN2)C1 [Example 33] : 1.23e+06 M⁻¹ s⁻¹

====

# target_entity: Human Polθ polymerase domain (aa1820-2590) (Homo sapiens, UniProt O75417)
# Construct: Human Polθ polymerase domain (aa1820-2590) was expressed in E. coli; made in house; host or cells: E. coli
# experimental_details: Polθ Polymerase Domain Kinact/KI Assay (PicoGreen)
# Format: biochemical
# setup_conditions: 0.8 nM Polθ, 100 nM DNA substrate, kobs vs [I] fit for 2-step covalent inhibitor
Kindly state Kinact/Kl for each of the entries shown.
Numbers only, in M⁻¹ s⁻¹.

C=CC(=O)N1CC(c2cccc(CN3C[C@H]4CC(=O)N(c5cc(C(F)(F)F)cc(C)n5)[C@@H]4C(=O)N(C)c4cccc(F)c43)n2)C1 = 660000
C=CC(=O)N1CC(c2nc(CN3C[C@H]4CC(=O)N(c5cc(C(F)(F)F)cc(C)n5)[C@@H]4C(=O)N(C)c4cccc(F)c43)n[nH]2)C1 = 430000
C=CC(=O)N1Cc2ccc(CN3C[C@H]4CC(=O)N(c5cc(C(F)(F)F)cc(C)n5)[C@@H]4C(=O)N(C)c4cccc(Cl)c43)cc2[C@@H]1CC#N (racemic) [Example 288b] = 500000

Provide the reported Kinact/Kl of each entry below, same order.
1. C=CC(=O)N1CCn2nc(CN3C[C@H]4CC(=O)N(c5cc(C(F)(F)F)cc(C)n5)[C@@H]4C(=O)N(C)c4cccc(C)c43)cc2C1
2. C=CC(=O)N1Cc2ccc(CN3C[C@H]4CC(=O)N(c5cc(C(F)(F)F)cc(C)n5)[C@@H]4C(=O)N(C)c4cccc(C)c43)cc2C1
3. C=CC(=O)N1C[C@@H](F)[C@@H](n2cc(CN3C[C@H]4CC(=O)N(c5cc(C(F)(F)F)cc(C)n5)[C@@H]4C(=O)N(C)c4cccc(C)c43)cn2)C1 (single isomer, unassigned) [Example 325d]
4. C=CC(=O)N1CC(NCCCN2C[C@H]3CC(=O)N(c4cc(C(F)(F)F)cc(C)n4)[C@@H]3C(=O)N(C)c3cccc(F)c32)C1

Data returned:
["2.92e+06", 660000, "1.77e+06", 970000]
